Source: PubChem BioAssay (NCATS)

# experimental.target: Mitogen-activated protein kinase 10 (Mus musculus) (UniProt Q61831)
# method.notes: JNK3 AlphaScreen Assay (AID 530);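 also: kinase came from lysate of stimulated human HepG2 cells; signal reports phosphorylation of biotinylated GST-cJun 1-79 at Ser73 with 10 µM ATP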
# assay.conditions: JNK3 lysate, c-Jun phosphorylation; series mostly up to 25.6 µM
Inconclusive results are not listed. Calls of active or inactive are those of the source. Calls follow the shape of the dose curve; as a rule, active = well fitted curve in either direction with a large enough effect (not every such curve was filed as active); inconclusive = small, poorly fitted or top-dose-only effect, or another doubt; inactive = flat fitted curve, though single readings scatter.
property.measured: outcome

compound	experimental.target	outcome
COc1cc2nc(N3CCN(C(=O)[C@@H]4CCCO4)CC3)nc(N)c2cc1OC	Mitogen-activated protein kinase 10 (Mus musculus) (UniProt Q61831)	inactive
CN1CCCN=C1/C=C\c1cccs1	Mitogen-activated protein kinase 10 (Mus musculus) (UniProt Q61831)	inactive
CC[C@H](Cc1c(I)cc(I)c(N)c1I)C(=O)O	Mitogen-activated protein kinase 10 (Mus musculus) (UniProt Q61831)	inactive
OCCOCCN1CCN([C@@H](c2ccccc2)c2ccc(Cl)cc2)CC1	Mitogen-activated protein kinase 10 (Mus musculus) (UniProt Q61831)	inactive
C[N+]1(C)C[C@@H](O)C[C@@H]1C(=O)[O-]	Mitogen-activated protein kinase 10 (Mus musculus) (UniProt Q61831)	inactive
C[C@@H]1[C@H](C)CC[C@@]2(C(=O)O)CC[C@]3(C)C(=CC[C@H]4[C@@]5(C)CC[C@@H](O)C(C)(C)[C@@H]5CC[C@@]43C)[C@@H]12	Mitogen-activated protein kinase 10 (Mus musculus) (UniProt Q61831)	inactive

Query: Dear colleague, I am looking for the recorded outcome of the following compound: C[C@H]1CS(=O)(=O)CCN1/N=C\c1ccc([N+](=O)[O-])o1
Response: inactive

Query: Dear colleague, I am looking for the recorded outcome of the following compound: C[C@@H]1C[C@H](OC(=O)c2ccccc2O)CC(C)(C)C1
Response: inactive

Query: Dear colleague, I am looking for the recorded outcome of the following compound: Cc1ccccc1OC[C@H](O)CO
Response: inactive

Query: Dear colleague, I am looking for the recorded outcome of the following compound: O=C(O)[C@@H]1CCCN1
Response: inactive

Query: Dear colleague, I am looking for the recorded outcome of the following compound: C[C@H](C(=O)O)c1cccc(Oc2ccccc2)c1
Response: inactive
